Data provenance: patent US20210155689A1

Measured Mean fluorescence intensity accompanies every entry in the list below.
Target: T1, human LAG-3 on cells (HEK293-hLAG-3 stable cell line) (human, UniProt P18627 23-525)
T1 sequence: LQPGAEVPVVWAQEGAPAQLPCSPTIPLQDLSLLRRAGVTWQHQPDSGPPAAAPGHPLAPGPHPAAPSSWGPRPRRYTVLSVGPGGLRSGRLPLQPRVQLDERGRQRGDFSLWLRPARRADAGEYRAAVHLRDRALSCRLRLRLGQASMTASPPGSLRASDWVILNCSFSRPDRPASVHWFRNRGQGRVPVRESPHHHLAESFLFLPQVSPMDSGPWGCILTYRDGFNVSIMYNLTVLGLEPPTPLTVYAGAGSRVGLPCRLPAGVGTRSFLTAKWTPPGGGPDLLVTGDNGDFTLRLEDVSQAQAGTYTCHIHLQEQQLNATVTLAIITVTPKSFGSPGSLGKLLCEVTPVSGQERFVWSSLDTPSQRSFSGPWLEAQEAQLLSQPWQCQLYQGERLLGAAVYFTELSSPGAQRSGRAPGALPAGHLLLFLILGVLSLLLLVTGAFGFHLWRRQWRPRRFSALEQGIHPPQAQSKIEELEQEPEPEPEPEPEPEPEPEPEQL
Experiment: FACS, HEK293-hLAG-3, antibody 0.064 nM

556F6B8-5 humanized antibody (antibody, V domains shown) VH: QVQLQESGPGLVKPSETLSLTCTVSGGSISKYGVHWIRQPPGKGLEWIGVIWRGGITDYNAAFMSRVTISVDTSKNQFSLKLSSVTAADTAVYYCARWDGPLAMDYWGQGTTVTVSS VL: DIVLTQSPSFLSASVGDRVTITCKASQDVGTTVAWYQQKPGKAPKLLIYWASTRHTGVPSRFSGSGSGTEFTLTISSLQPEDFATYYCQQYSSYPYTFGQGTKLEIK | 4

Mean fluorescence intensity for 556F6B8-7 humanized antibody (antibody, V domains shown) VH: QVQLQESGPGLVKPSETLSLTCTVSGFSLIKYGVHWIRQPPGKGLEWIGVIWRGGITDYNAAFMSRVTISKDTSKSQVSLKLSSVTAADTAVYYCARWDGPLAMDYWGQGTTVTVSS VL: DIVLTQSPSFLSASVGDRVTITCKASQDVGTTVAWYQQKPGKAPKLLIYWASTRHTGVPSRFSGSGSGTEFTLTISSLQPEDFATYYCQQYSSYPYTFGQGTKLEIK ?
18

Mean fluorescence intensity for 556F6B8-8 humanized antibody (antibody, V domains shown) VH: RVQLQESGPGLVKPSETLSLTCTVSGFSLIKYGVHWIRQPPGKGLEWIGVIWRGGITDYNAAFMSRVTISKDTSKSQVSLKLSSVTAADTAVYYCAKWDGPLAMDYWGQGTTVTVSS VL: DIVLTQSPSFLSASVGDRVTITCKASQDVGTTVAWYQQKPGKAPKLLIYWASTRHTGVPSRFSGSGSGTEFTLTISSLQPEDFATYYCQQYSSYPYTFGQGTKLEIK ?
15

Mean fluorescence intensity for 556F6B8 mouse-human chimeric antibody (antibody, V domains shown, also called mAb123-556F6B8; 556F8B8) VH: RVQLKQSGPGLVQPSQSLSITCTVSGFSLIKYGVHWVRQSPGEGLEWLGVIWRGGITDYNAAFMSRLSITKDNSKSQVFFKMNSLQADDTAIYYCAKWDGPLAMDYWGQGTSVTVSS VL: DIVMTQSHKFLSTSVGDRVSITCKASQDVGTTVAWYQQKPGQSPKLLIYWASTRHTGVPDRFTGSGSGTDFTLTISNVQSEDLADYFCQQYSSYPYTFGGGTKLEIK ?
12

Mean fluorescence intensity for 556F6B8-11 humanized antibody (antibody, V domains shown) VH: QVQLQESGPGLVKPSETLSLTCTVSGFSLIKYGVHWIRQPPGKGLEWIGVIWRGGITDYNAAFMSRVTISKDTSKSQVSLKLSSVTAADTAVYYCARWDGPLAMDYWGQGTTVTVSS VL: DIVLTQSPSFLSASVGDRVTITCKASQDVGTTVAWYQQKPGKSPKLLIYWASTRHTGVPSRFSGSGSGTEFTLTISSLQPEDFATYYCQQYSSYPYTFGQGTKLEIK ?
20
